Biological target: T1, human TIGIT over-expressed on cells (human, UniProt Q495A1 22-244)
T1 construct: also called CHO-K1/human TIGIT cells; CHO cells expressing human TIGIT
T1 sequence: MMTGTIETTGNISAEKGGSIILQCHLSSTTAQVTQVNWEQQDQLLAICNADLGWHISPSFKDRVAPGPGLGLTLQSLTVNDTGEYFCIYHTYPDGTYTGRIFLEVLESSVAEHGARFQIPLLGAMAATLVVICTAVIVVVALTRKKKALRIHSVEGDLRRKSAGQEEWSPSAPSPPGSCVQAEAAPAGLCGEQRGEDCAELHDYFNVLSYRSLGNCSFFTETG
Assay: competition FACS, CHO cells expressing human TIGIT; competitor PVR recombinant protein
Reported Top (best-fit) by item:
Returns: the value as a bare number; no unit string appended.

1) 92E9D4B4 (antibody, V domains shown, Mouse monoclonal antibody; also called mouse anti-human TIGIT monoclonal antibody 92E9D4B4) VH: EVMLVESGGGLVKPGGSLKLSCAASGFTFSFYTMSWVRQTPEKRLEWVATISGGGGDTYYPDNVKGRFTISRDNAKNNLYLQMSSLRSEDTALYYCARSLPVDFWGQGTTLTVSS VL: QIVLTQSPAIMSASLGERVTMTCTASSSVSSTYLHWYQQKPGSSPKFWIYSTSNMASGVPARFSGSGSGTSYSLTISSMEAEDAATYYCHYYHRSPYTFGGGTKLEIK ... 65.5

Kindly consider the entry below.
For 100C4E7D11 (antibody, V domains shown, Mouse monoclonal antibody; also called mouse anti-human TIGIT monoclonal antibody 100C4E7D11) VH: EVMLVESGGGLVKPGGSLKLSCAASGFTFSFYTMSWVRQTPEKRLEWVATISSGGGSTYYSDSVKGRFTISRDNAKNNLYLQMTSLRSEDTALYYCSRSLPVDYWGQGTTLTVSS VL: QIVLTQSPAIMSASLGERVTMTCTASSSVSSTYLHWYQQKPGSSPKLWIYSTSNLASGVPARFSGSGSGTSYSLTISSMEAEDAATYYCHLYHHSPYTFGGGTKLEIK the binder record lists Top (best-fit) as 66.5
